Reference source: patent US20160045505A1

Test system: L. donovani HU3 strain in mouse peritoneal macrophages
Test: Assay for proliferation of Leishmania parasites in infected mouse peritoneal macrophages (SybrGreen staining, high-content imaging, 5 days)
Format: cell-based, Leishmania donovani
Conditions: Leishmania donovani, Peritoneal macrophage, L. donovani in mouse peritoneal macrophages, inhibition of proliferation; read-out: L. donovani Macrophage EC50
measured metric: EC50 (nM)
Your answer should be a plain number; it is taken to be in nM.

INSERT INTO assay_data (structure_as_smiles, unit_annotation, endpoint_result) VALUES
  ('Cc1ccc(C(=O)Nc2ccc(F)c(-c3cn4cc(NC(=O)OC(C)C)cnc4n3)c2)o1', 'nM', 244);

# query: EC50 of entry CC(C)OC(=O)Nc1cnc2nc(-c3cc(NC(=O)N4CCC[C@@H]4C(F)(F)F)ccc3Cl)cn2c1
3830

# query: EC50 of entry CC(C)OC(=O)Nc1ccc(F)c(-c2cn3cc(-c4ccccn4)cnc3n2)c1
95

# query: EC50 of entry Cc1nc(C)c(C(=O)Nc2ccc(F)c(-c3cn4cc(NC(=O)OC(C)C)cnc4n3)c2)s1
39200

# query: EC50 of entry O=C(Nc1ccc(F)c(-c2cn3cc(C4=CCOCC4)cnc3n2)c1)N1CC(F)C1
132

# query: EC50 of entry CC(C)(C)OC(=O)N1CCC(Oc2ccc(-c3cnc4nc(-c5cc(NC(=O)N6CCCC6)ccc5Cl)cn4c3)cc2)CC1
955

====

System: Trypanosoma brucei Lister 427 strain, bloodstream form
Assay: Assay for proliferation of kinetoplastid parasite Trypanosoma brucei (Cell Titer Glo, 48 hours)
Type: cell-based
Conditions: Trypanosoma brucei, T. brucei Lister 427 bloodstream form; read-out: T. brucei EC50
Method: Assay for Proliferation of Kinetoplastid Parasite Trypanosoma brucei. The proliferation is quantified by the addition of Cell Titer Glo (Promega®) a luminescent cell viability assay that measures the number of viable cells in culture based on the quantification of cellular ATP amount, which is an indicator of metabolically active cells. […] Trypanosoma brucei Lister 427 strain is grown in HMI-9 Trypanosome media for T. brucei bloodstream form. […] The plates are then read for luminescence. […]
measured metric: EC50 (µM)
Your answer should be a plain number; it is taken to be in µM.

INSERT INTO results (structure_as_smiles, measured_metric, endpoint_result) VALUES
  ('Cc1nc(C)c(C(=O)Nc2ccc(F)c(-c3cn4cc(C#CCCN5CCN(C)CC5)cnc4n3)c2)o1', 'EC50', 3.18),
  ('CC(=O)Nc1ccc(F)c(-c2cn3cc(NC(=O)OC(C)(C)C)cnc3n2)c1', 'EC50', 3.26),
  ('Cc1nc(C)c(C(=O)Nc2ccc(F)c(-c3cn4cc(-c5ncccc5C)cnc4n3)c2)o1', 'EC50', 0.021);

# query: EC50 of entry COC(=O)c1cnc2nc(-c3cc(NC(=O)c4oc(C)nc4C)ccc3F)cn2c1
0.518

# query: EC50 of entry Cc1nc(C)c(C(=O)Nc2ccc(F)c(-c3cn4cc(-c5cccc(F)n5)cnc4n3)c2)o1
0.16

# query: EC50 of entry O=C(Nc1ccc(F)c(-c2cn3cc(NC4CCOCC4)cnc3n2)c1)N1CCCC1
0.217

# query: EC50 of entry O=C(Nc1ccc(Cl)c(-c2cn3cc(N4CCCC4)cnc3n2)c1)N1CCCC1
0.036
